Catalogue of PGE2 - HTRF over IL-β induction at 0.001 μM readings, one per entry.
biological target: 15-PGDH (Homo sapiens); construct: 15-PGDH is highly expressed in resting human lung adenocarcinoma cells (A549); endogenous in cells; host or cells: A549; assay: A549 cell based assay: PGE2 in supernatant after IL-1β (HTRF); settings: A549 cells; fold induction of PGE2, IL-1β plus test article versus IL-1β only; 0.001 μM
readout type: PGE2 - HTRF over IL-β induction at 0.001 μM

substance smiles: O=C(c1cnc2c(ccn2-c2ccc(-c3nc[nH]n3)s2)c1)N1CCC(F)(F)CC1
target: 15-PGDH (Homo sapiens)
observed value: 1.01
//
substance smiles: O=C(c1cnc2c(ccn2-c2ccc(N3CCOC3=O)nc2)c1)N1CCC[C@H](C(F)(F)F)C1
target: 15-PGDH (Homo sapiens)
observed value: 2.36
//
substance smiles: Cc1cn2cc(-n3ccc4cc(C(=O)N5CCC(F)(F)CC5)cnc43)ccc2n1
target: 15-PGDH (Homo sapiens)
observed value: 1.15

---

target: 15-PGDH (Homo sapiens); construct: 15-PGDH is highly expressed in resting human lung adenocarcinoma cells (A549); endogenous in cells; host or cells: A549; assay: A549 cell based assay: PGE2 in supernatant after IL-1β (HTRF); conditions: A549 cells; fold induction of PGE2, IL-1β plus test article versus IL-1β only; 0.001 μM
Catalogue of PGE2 - HTRF over IL-β induction at 0.001 μM readings, one per entry.
readout type: PGE2 - HTRF over IL-β induction at 0.001 μM

compound: CCOC(=O)Nc1cc(-n2ccc3cc(C(=O)N4CCC(F)(F)CC4)cnc32)cnc1C
target: 15-PGDH (Homo sapiens)
observed value: 0.77
//
compound: O=C(c1cnc2c(ccn2-c2ccc(-n3cnnc3)cc2)c1)N1CCC(F)(F)CC1
target: 15-PGDH (Homo sapiens)
observed value: 1.73
//
compound: O=C(Nc1cncc(-n2ccc3cc(C(=O)N4CCC(F)(F)CC4)cnc32)c1)C1CCC1
target: 15-PGDH (Homo sapiens)
observed value: 1.63
//
compound: O=C(c1cnc2c(ccn2-c2ccc(N3CCOC3=O)nc2)c1)N1CCCC(F)(F)C1
target: 15-PGDH (Homo sapiens)
observed value: 4.36
//
compound: Cc1nc2ccc(-n3ccc4cc(C(=O)N5CCC(F)(F)CC5)cnc43)cn2n1
target: 15-PGDH (Homo sapiens)
observed value: 1.34
//
compound: O=C(c1cnc2c(ccn2-c2ccc(N3CCOC3=O)nc2)c1)N1CCCC(C(F)(F)F)C1 (centres unmarked)
target: 15-PGDH (Homo sapiens)
observed value: 2.23
//
compound: O=C(O)c1ccc(-n2ccc3cc(C(=O)N4CCC(F)(F)CC4)cnc32)s1
target: 15-PGDH (Homo sapiens)
observed value: 1.48
//
compound: COC(=O)Nc1cncc(-n2ccc3cc(C(=O)N4CCCC(F)(F)C4)cnc32)c1
target: 15-PGDH (Homo sapiens)
observed value: 2.7

---

target: 15-PGDH (Homo sapiens); construct: 15-PGDH is highly expressed in resting human lung adenocarcinoma cells (A549); endogenous in cells; host or cells: A549; assay: A549 cell based assay: PGE2 in supernatant after IL-1β (HTRF); conditions: A549 cells; fold induction of PGE2, IL-1β plus test article versus IL-1β only; 0.01 μM
Catalogue of PGE2 - HTRF over IL-β induction at 0.01 μM readings, one per entry.
readout type: PGE2 - HTRF over IL-β induction at 0.01 μM

compound: O=C(c1cnc2c(ccn2-c2ccc(N3CCOC3=O)nc2)c1)N1CCC[C@H](C(F)(F)F)C1 [Compound B-80]
target: 15-PGDH (Homo sapiens)
observed value: 2.83
//
compound: CCC1CCCN(C(=O)c2cnc3c(ccn3-c3cncc(NC(=O)OC)c3)c2)C1 (stereo in doubt) [Compound B-70]
target: 15-PGDH (Homo sapiens)
observed value: 4.44
//
compound: COC(=O)Nc1cncc(-n2ccc3cc(C(=O)N4CCCC(F)(F)C4)cnc32)c1 [Compound B-82]
target: 15-PGDH (Homo sapiens)
observed value: 5.52
//
compound: CCC1CCCN(C(=O)c2cnc3c(ccn3-c3cncc(NC(=O)OC)c3)c2)C1 (centres unmarked) [Compound B-83]
target: 15-PGDH (Homo sapiens)
observed value: 2.64
//
compound: Cc1cn2cc(-n3ccc4cc(C(=O)N5CCC(F)(F)CC5)cnc43)ccc2n1 [Compound B-103]
target: 15-PGDH (Homo sapiens)
observed value: 1.34
//
compound: O=C(c1cnc2c(ccn2-c2ccc(N3CCOC3=O)nc2)c1)N1CCC[C@@H](C(F)(F)F)C1 [Compound B-81]
target: 15-PGDH (Homo sapiens)
observed value: 1.08
//
compound: O=C(c1cnc2c(ccn2-c2ccc(N3CCOC3=O)nc2)c1)N1CCCC(C(F)(F)F)C1 (centres unmarked) [Compound B-114]
target: 15-PGDH (Homo sapiens)
observed value: 5.78
//
compound: O=C(c1cnc2c(ccn2-c2ccc(N3CCOC3=O)nc2)c1)N1CCCC(F)(F)C1 [Compound B-115]
target: 15-PGDH (Homo sapiens)
observed value: 3.07

---

Target: 15-PGDH (Homo sapiens, UniProt P15428)
Construct: 15-PGDH is highly expressed in resting human lung adenocarcinoma cells (A549); endogenous in cells; host or cells: A549
Sequence (P15428 1-266): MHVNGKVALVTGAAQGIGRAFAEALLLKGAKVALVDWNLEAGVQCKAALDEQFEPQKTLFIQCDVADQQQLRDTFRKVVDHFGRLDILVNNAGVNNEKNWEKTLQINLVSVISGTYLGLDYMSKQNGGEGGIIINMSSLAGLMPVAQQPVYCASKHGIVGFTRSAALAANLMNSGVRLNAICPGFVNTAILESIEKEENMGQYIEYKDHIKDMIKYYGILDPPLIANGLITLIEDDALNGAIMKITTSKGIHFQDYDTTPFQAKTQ
Test: A549 cell based assay: PGE2 in supernatant after IL-1β (HTRF)
Settings: A549 cells; fold induction of PGE2, IL-1β plus test article versus IL-1β only; 0.1 μM
readout type: PGE2 - HTRF over IL-β induction at 0.1 μM

compound: O=C(c1cnc2c(ccn2-c2ccc(N3CCOC3=O)nc2)c1)N1CCC[C@@H](C(F)(F)F)C1
target: 15-PGDH (Homo sapiens, UniProt P15428)
observed value: 2.21

compound: COC(=O)Nc1cncc(-n2ccc3cc(C(=O)N4CCCC(C(F)(F)F)C4)cnc32)c1 (stereo not drawn)
target: 15-PGDH (Homo sapiens, UniProt P15428)
observed value: 4.02

compound: O=C(c1cnc2c(ccn2-c2ccc(-c3nnc(C4CC4)[nH]3)cc2)c1)N1CCC(F)(F)CC1
target: 15-PGDH (Homo sapiens, UniProt P15428)
observed value: 3.96

---

molecular target: 15-PGDH (Homo sapiens); construct: 15-PGDH is highly expressed in resting human lung adenocarcinoma cells (A549); endogenous in cells; host or cells: A549; experiment: A549 cell based assay: PGE2 in supernatant after IL-1β (HTRF); conditions: A549 cells; fold induction of PGE2, IL-1β plus test article versus IL-1β only; 1 μM
PGE2 - HTRF over IL-β induction at 1 μM of 5 or higher: met. Under 5: not met.

molecule: C[C@H]1CCCN(C(=O)c2cnc3c(ccn3-c3cnn(CC(F)(F)F)c3)c2)C1
group label: met
--
molecule: O=C(c1cnc2c(ccn2-c2ccc(-c3nnc(C4CC4)[nH]3)cc2)c1)N1CCC(F)(F)CC1
group label: not met
--
molecule: COC(=O)Nc1cncc(-n2ccc3cc(C(=O)N4CCCC(C(F)(F)F)C4)cnc32)c1 (stereo not drawn)
group label: met
--
molecule: O=C(c1cnc2c(ccn2-c2ccc3nc(N4CCOCC4)nn3c2)c1)N1CCC(F)(F)CC1
group label: met
--
molecule: Cc1cn2cc(-n3ccc4cc(C(=O)N5CCC(F)(F)CC5)cnc43)ccc2n1
group label: met
--
molecule: O=C(c1cnc2c(ccn2-c2cccc(-c3nc[nH]n3)c2)c1)N1CCC(F)(F)CC1
group label: not met
--
molecule: O=C(c1cnc2c(ccn2-c2ccc(N3CCOC3=O)nc2)c1)N1CCC[C@H](C(F)(F)F)C1
group label: not met
--
molecule: COC(=O)Nc1cncc(-n2ccc3cc(C(=O)N4CCCC(F)(F)C4)cnc32)c1
group label: not met
--
molecule: O=C(c1cnc2c(ccn2-c2ccc(N3CCOC3=O)nc2)c1)N1CCCC(C(F)(F)F)C1 (stereo not drawn)
group label: met
--
molecule: O=C(c1cnc2c(ccn2-c2ccc(-n3cnnc3)cc2)c1)N1CCC(F)(F)CC1
group label: not met
--
molecule: CCC1CCCN(C(=O)c2cnc3c(ccn3-c3cncc(NC(=O)OC)c3)c2)C1 (stereo not drawn) [Compound B-83]
group label: not met
--
molecule: CC(C)OC(=O)Nc1cncc(-n2ccc3cc(C(=O)N4CCC(F)(F)CC4)cnc32)c1
group label: not met
--
molecule: O=C(c1cnc2c(ccn2-c2ccc(N3C(=O)CCC3=O)cc2)c1)N1CCC(F)(F)CC1
group label: not met
--
molecule: O=C(Nc1cncc(-n2ccc3cc(C(=O)N4CCC(F)(F)CC4)cnc32)c1)C1CCCC1
group label: not met
--
molecule: CCOC(=O)Nc1cc(-n2ccc3cc(C(=O)N4CCC(F)(F)CC4)cnc32)cnc1C
group label: met
--
molecule: O=C(c1cnc2c(ccn2-c2ccc(N3CCOC3=O)nc2)c1)N1CCCC(F)(F)C1
group label: met
--
molecule: O=C(O)c1ccc(-n2ccc3cc(C(=O)N4CCC(F)(F)CC4)cnc32)s1
group label: not met
--
molecule: O=C(c1cnc2c(ccn2-c2ccc(N3CCOC3=O)nc2)c1)N1CCC[C@@H](C(F)(F)F)C1
group label: not met
--
molecule: C[C@H]1CCCN(C(=O)c2cnc3c(ccn3-c3ccc4nc(N(C)C)nn4c3)c2)C1
group label: not met
--
molecule: Cc1nc2ccc(-n3ccc4cc(C(=O)N5CCC(F)(F)CC5)cnc43)cn2n1
group label: met
--
molecule: CCC1CCCN(C(=O)c2cnc3c(ccn3-c3cncc(NC(=O)OC)c3)c2)C1 (stereo in doubt) [Compound B-70]
group label: not met
--
molecule: CCC1CCCN(C(=O)c2cnc3c(ccn3-c3ccc(N4CCOC4=O)nc3)c2)C1 (stereo not drawn)
group label: met
--
molecule: O=C(Nc1cncc(-n2ccc3cc(C(=O)N4CCC(F)(F)CC4)cnc32)c1)C1CCC1
group label: met
--
molecule: O=C(c1cnc2c(ccn2-c2ccc(-c3nc[nH]n3)s2)c1)N1CCC(F)(F)CC1
group label: not met
--
molecule: O=C(Nc1cncc(-n2ccc3cc(C(=O)N4CCC(F)(F)CC4)cnc32)c1)C1CCOCC1
group label: not met
